Ki tested on Sodium-dependent serotonin transporter (Rattus norvegicus, UniProt P31652): recorded values
Sequence (P31652 whole entry): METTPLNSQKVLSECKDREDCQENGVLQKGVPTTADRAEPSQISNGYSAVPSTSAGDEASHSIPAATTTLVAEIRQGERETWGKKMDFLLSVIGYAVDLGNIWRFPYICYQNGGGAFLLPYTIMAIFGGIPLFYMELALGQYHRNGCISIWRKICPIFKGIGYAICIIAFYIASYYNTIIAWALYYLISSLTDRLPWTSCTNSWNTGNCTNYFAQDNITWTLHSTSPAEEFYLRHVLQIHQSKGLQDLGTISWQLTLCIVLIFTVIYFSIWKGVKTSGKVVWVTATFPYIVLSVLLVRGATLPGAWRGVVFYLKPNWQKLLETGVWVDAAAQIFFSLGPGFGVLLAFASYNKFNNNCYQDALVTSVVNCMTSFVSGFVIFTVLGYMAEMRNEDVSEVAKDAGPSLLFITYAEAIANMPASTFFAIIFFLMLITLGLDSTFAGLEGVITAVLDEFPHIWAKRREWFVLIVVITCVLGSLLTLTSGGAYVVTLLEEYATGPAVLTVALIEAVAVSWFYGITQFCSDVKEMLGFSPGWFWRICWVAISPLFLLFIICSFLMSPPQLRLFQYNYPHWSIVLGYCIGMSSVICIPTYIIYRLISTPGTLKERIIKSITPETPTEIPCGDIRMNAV
Outcome measure: Ki (nM)

Compound | Value relation sign | Result value
CN(C)CCC(Oc1ccc(NC(=O)Nc2ccc3ccccc3c2)cc1)c1ccccc1 (configuration not stated) | = | 62
Cn1ccc2cc(NC(=O)Nc3cccnc3)ccc21 | > | 10000
Cc1ccc(NC(=O)Nc2ccc(OC(CCN(C)C)c3ccccc3)cc2)cc1I (configuration not stated) | = | 121
CN(C)CCC(Oc1cccc(NC(=O)Nc2ccc3ccccc3c2)c1)c1ccccc1 (configuration not stated) | = | 28.2
CN(C)CCC(Oc1ccc(N2CCN(c3ccc(Cl)c(Cl)c3)C2=O)cc1)c1ccccc1 (configuration not stated) | = | 102
CN(C)CCC(Oc1ccc(NC(=O)Nc2ccc(Cl)c(Cl)c2)cc1)c1ccccc1 (configuration not stated) | = | 135
Cc1ccc(C(=O)Nc2ccc(OC(CCN(C)C)c3ccccc3)cc2)cc1Cl (configuration not stated) | = | 34.6
CN(C)CCC(Oc1ccc(NC(=O)Nc2ccc3ccn(C)c3c2)cc1)c1ccccc1 (configuration not stated) | = | 19.3
CN(C)CCC(Oc1cccc(NC(=O)Nc2ccc3c(ccn3C)c2)c1)c1ccccc1 (configuration not stated) | = | 9.4
COc1ccc(C(=O)Nc2ccc(OC(CCN(C)C)c3ccccc3)cc2)cc1C(F)(F)F (configuration not stated) | = | 22.3
CCn1ccc2cc(NC(=O)Nc3ccc(OC(CCN(C)C)c4ccccc4)cc3)ccc21 (configuration not stated) | = | 37.9
CN(C)CCC(Oc1ccc(NC(=O)Nc2ccc3nccn3c2)cc1)c1ccccc1 (configuration not stated) | = | 4

* * *

Assay: Apparent permeability from apical to basolateral side in vinblastine-treated human Caco2 cells at 3 to 50 uM
Type: ADME, cell-based
Conditions: Caco-2
Outcome measure: Papp A→B at 50 µM (×10⁻⁶ cm/s)

Molecule | Result value
COc1ccc(NC(=O)Nc2ccc(OC(CCN(C)C)c3ccccc3)cc2)cc1Cl (centres undefined) | 7.5
CN(C)CCC(Oc1ccc(NC(=O)c2ccc(Cl)c(Cl)c2)cc1)c1ccccc1 (centres undefined) | 11.3
Cc1ccc(C(=O)Nc2ccc(OC(CCN(C)C)c3ccccc3)cc2)cc1Cl (centres undefined) | 19.9
CN(C)CCC(Oc1ccc(NC(=O)Nc2ccc3c(ccn3C)c2)cc1)c1ccccc1 (centres undefined) | 5.8

* * *

Target: UniProt:P08909
Sequence (P08909 whole entry): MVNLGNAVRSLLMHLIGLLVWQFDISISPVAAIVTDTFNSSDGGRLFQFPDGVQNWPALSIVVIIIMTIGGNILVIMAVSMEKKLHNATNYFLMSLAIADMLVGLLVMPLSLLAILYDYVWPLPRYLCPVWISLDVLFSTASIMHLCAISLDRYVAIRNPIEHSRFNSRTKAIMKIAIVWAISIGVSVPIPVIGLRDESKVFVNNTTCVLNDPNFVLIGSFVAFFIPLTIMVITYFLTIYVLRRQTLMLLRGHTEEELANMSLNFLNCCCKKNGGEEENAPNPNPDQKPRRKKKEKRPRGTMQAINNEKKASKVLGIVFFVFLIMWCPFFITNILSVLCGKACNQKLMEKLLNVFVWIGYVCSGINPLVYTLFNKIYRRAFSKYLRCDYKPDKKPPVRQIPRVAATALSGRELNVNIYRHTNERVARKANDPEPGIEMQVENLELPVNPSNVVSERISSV
pKi: −log10 of the molar value.

Compound | Target under test | pKi
CSc1ccc(NC(=O)Nc2ccc(OC(CCN(C)C)c3ccccc3)cc2)cc1C(F)(F)F (centres undefined) | UniProt:P08909 | 8.47
CCn1ccc2cc(NC(=O)Nc3ccc(OC(CCN(C)C)c4ccccc4)cc3)ccc21 (centres undefined) | UniProt:P08909 | 7.97
CN(C)CCC(Oc1cccc(NC(=O)Nc2ccc3ccccc3c2)c1)c1ccccc1 (centres undefined) | UniProt:P08909 | 7.06
COc1ccc(NC(=O)Nc2ccc(OC(CCN(C)C)c3ccccc3)cc2)cc1Cl (centres undefined) | UniProt:P08909 | 7.95
CN(C)CCC(Oc1ccc(N2CCN(c3ccc(Cl)c(Cl)c3)C2=O)cc1)c1ccccc1 (centres undefined) | UniProt:P08909 | 7.99
Cc1ccc(NC(=O)Nc2ccc(OC(CCN(C)C)c3ccccc3)cc2)cc1I (centres undefined) | UniProt:P08909 | 8.62
O=C(Nc1cccnc1)Nc1ccc2ccccc2c1 | UniProt:P08909 | 8.21
COc1ccc(C(=O)Nc2ccc(OC(CCN(C)C)c3ccccc3)cc2)cc1C(F)(F)F (centres undefined) | UniProt:P08909 | 7.04
CN(C)CCC(Oc1ccc(NC(=O)Nc2ccc(Cl)c(Cl)c2)cc1)c1ccccc1 (centres undefined) | UniProt:P08909 | 8.54

Where do the numbers come from? From ChEMBL document CHEMBL3259720.
